Exercise: state measured TGI for each of the molecules provided.
test system: SF-295 CNS; assay: NCI tumour cell line growth inhibition, 48 h

[[record]]
input_smiles = "COc1ccc(Br)c(C(=O)N2CCc3ccccc32)c1N"
test_system = "SF-295 CNS"
data_value = "> 100 µM"

[[record]]
input_smiles = "Clc1ccc(CN2CCCN(Cc3ccc(Cl)cc3)C2c2cc3ccccc3c3ccccc23)cc1"
test_system = "SF-295 CNS"
data_value = "> 100 µM"


Each molecule below has a reported value. Please supply its TGI.
1. Cc1ccc(S(=O)(=O)N2CCSCCSCCSCCN(S(=O)(=O)c3ccc(C)cc3)CC2)cc1
2. Cn1cnnc1[S-].[Au+].c1ccc([PH+](c2ccccc2)c2ccccc2)cc1
3. Cc1ccc(C(=O)Oc2ccccc2)cc1N=NN(C)C

Reply:
1. > 100 µM
2. 3.82 µM
3. > 100 µM

###

system: SK-MEL-2 melanoma; experiment: NCI tumour cell line growth inhibition, 48 h
Exercise: state measured TGI for each of the compounds provided.

Each compound below has a reported value. Please supply its TGI.
1. COc1ccc(C)cc1NC(=S)C#N
2. COc1ccc(C2Cc3cc(OC)c(OC)c(OC)c3C2)cc1 (stereo unspecified)
3. Cc1cc(NS(=O)(=O)c2ccc(N=[N+]([O-])c3ccc(S(=O)(=O)Nc4cc(C)on4)cc3)cc2)no1
4. Nc1ccccc1C(=O)N=Nc1c(O)[nH]c2ccccc12
5. CN=c1sc2nc(C#N)c(C#N)nc2n1C
6. Cc1ccc(S(=O)(=O)N/N=C2/CCC3(O)CC2(C)CCC2[C@H]3CC2(C)C)cc1 (stereo partly specified)

Reply:
1: > 100 µM; 2: > 100 µM; 3: > 100 µM; 4: > 100 µM; 5: 40.7 µM; 6: 69.2 µM

###

tested on: NCI-H23 lung; test: NCI tumour cell line growth inhibition, 48 h
metric.name: TGI

See these solved cases before continuing.
[[record]]
compound = "Cc1cc(S(N)(=O)=O)c(S/C(=N\\NS(=O)(=O)c2ccccc2)c2ccc(Cl)cc2)cc1Cl"
metric_name = "TGI"
data_value = "> 100 µM"

[[record]]
compound = "Cc1nn(C(=O)c2ccncc2)c2c1C(c1ccccc1[N+](=O)[O-])SC(N)=N2 (stereo unspecified)"
metric_name = "TGI"
data_value = "> 10 µM"

[[record]]
compound = "COc1ccc(C2=Nn3c(nnc3-n3nc(C)cc3C)SC2)cc1"
metric_name = "TGI"
data_value = "> 100 µM"

[[record]]
compound = "Cc1ccc(S(=O)(=O)N2CCSCCSCCSCCN(S(=O)(=O)c3ccc(C)cc3)CC2)cc1"
metric_name = "TGI"
data_value = "> 100 µM"


Each compound below has a reported value. Please supply its TGI.
1. C=C1C(=O)O[C@H]2C1C[C@H](O)[C@@]1(C)OC1CC[C@@]1(C)O[C@H]21 (stereo partly specified)
2. OCCN(CO)CO
3. Cc1nc2ccccc2c(=O)n1/N=C(\N=Nc1cc(Cl)ccc1Cl)c1ccccc1
4. CC(C)(C)O/N=C/c1cc(NC(=S)c2ccsc2)ccc1Cl
5. C=C1C[C@@H]2O[C@H]3[C@H]4[C@@H](CC[C@@](C)(OC(=O)CCC)[C@H]42)[C@@H](C)C(=O)O[C@@]3(C)CC[C@H]1OO

Reply:
["39.2 µM", "> 100 µM", "> 100 µM", "20.7 µM", "30.6 µM"]

Each compound below has a reported value. Please supply its TGI.
1. COc1cc(-c2nn(-c3cccc(NC(=O)CCN4CCN(c5ccccc5)CC4)c3)cc2-c2ccncc2)ccc1Cl
2. CC(=O)N1C(Nc2nccs2)CCN1c1ccccc1 (stereo unspecified)
3. O=C1OC([C@H](O)c2cccnc2)c2ccccc21 (stereo partly specified)
4. Cn1c(=O)c2c(nc(N/N=C/c3ccccc3C(=O)O)n2C)n(C)c1=O
5. C=C1C(O)C2(O)OCC34C(CC5C(C)=CC(=O)C(O)C5(C)C23)OC(=O)C(OC(=O)C/C=C/CCCCCCCC)C14 (stereo unspecified)
6. CC1(C)N=C(N)N=C(N)N1c1cccc(CCc2ccccc2)c1
7. O=C(Nc1ccccc1)OCCN=C1c2ccccc2CCc2ccccc21

Reply:
["> 100 µM", "> 10 µM", "> 10 µM", "> 100 µM", "0.0815 µM", "> 100 µM", "> 100 µM"]

Each compound below has a reported value. Please supply its TGI.
1. CC(=O)OCC1OC(n2c3c(cc(C#N)c2=S)CCCC3)C(OC(C)=O)C(OC(C)=O)C1OC(C)=O (stereo unspecified)
2. CCCCC1(C(NC(=O)c2ccccc2Cl)c2ccncc2)C(=O)N(c2ccccc2)N(c2ccccc2)C1=O (stereo unspecified)
3. O=NNc1ccc(S(=O)(=O)c2ccc3ccccc3c2)cn1
4. COc1ccc(/C=N/NS(=O)(=O)c2ccccc2)cc1
5. COc1ccc(CCn2cncn2)cc1

Reply:
> 100 µM
> 100 µM
> 100 µM
> 100 µM
> 100 µM
